Kindly state Control effect of B applied alone in a corresponding dose (%) for each of the entries shown.
# Tested on: weeds
# assay.overview: Activity assay of compositions: soil sealing treatment (S), fresh weight inhibition and combined effect (Gowing method)
# Type: in vivo
# condition.label: Commelina communis, B 60 g a.i./ha, 21 d
Please state the figure in %; there is no need to write the unit.

The compound listed as CCOC(=O)C1(C)CC(c2cc(-n3c(=O)cc(C(F)(F)F)n(C)c3=O)c(F)cc2Cl)=NO1 (stereo not shown) shows Control effect of B applied alone in a corresponding dose (%) equal to 47.3

For reference, reported Control effect of B applied alone in a corresponding dose (%) for `COC(=O)[C@@H](C)O/N=C/c1cc(-n2c(=O)cc(C(F)(F)F)n(C)c2=O)c(F)cc1Cl` stands at 46.1

Input CCOC(=O)COc1ncccc1Oc1cc(-n2c(=O)cc(C(F)(F)F)n(C)c2=O)c(F)cc1Cl [Epyrifenacil] . Output Control effect of B applied alone in a corresponding dose (%): 50.5

Reported Control effect of B applied alone in a corresponding dose (%) of COC(=O)CCNC(=O)C(C)Sc1cc(-n2c(=O)cc(C(F)(F)F)n(C)c2=O)c(F)cc1Cl (stereo not shown) [Tiafenacil] : 61.4

---

# System: major crops
# assay.overview: Pre-emergence test experiment (crops)
# Type: in vivo
# Design: key: 9: completely dead; 8: growth control rate is greater than or equal to 90% and less than 100%; 7: growth control rate is greater than or equal to 80% and less than 90%; 6: growth control rate is greater than or equal to 70% and less than 80%; growth control rate is greater than or equal to 50% and less than 70%; 4: growth control rate is greater than or equal to 30% and less than 50%; growth control rate is greater than or equal to 20% and less than 30%; growth control rate is greater than or equal to 10% and less than 20%; growth control rate is less than 10%; 0: no effect
# condition.label: Cotton, 30 g a.i./ha
measured.endpoint: Pre-emergence plant damage level (growth control rate) on Cotton
Answer with a bare number; do not write a unit.

Measured Pre-emergence plant damage level (growth control rate) on Cotton, `CCc1ccc(-n2cnc(C(F)F)n2)nc1Oc1cccc(OC(F)(F)F)c1` : 0

Entry `COCc1ccc(-n2cnc(C(F)(F)F)n2)nc1Oc1cccc(C)c1` — recorded Pre-emergence plant damage level (growth control rate) on Cotton = 0

Pre-emergence plant damage level (growth control rate) on Cotton reported for this compound `Cc1ccc(-n2cnc(C(F)F)n2)nc1Oc1cccc(C(F)F)c1` : 0

Query `COCc1ccc(-n2cnc(C(F)(F)F)n2)nc1Oc1ccc(F)c(OC(F)F)c1` yields Pre-emergence plant damage level (growth control rate) on Cotton of 0

According to the records, this compound `COCc1ccc(-n2cnc(C(F)(F)F)n2)nc1Oc1cccc(Cl)c1` displays Pre-emergence plant damage level (growth control rate) on Cotton of 0

Noted for `COCc1ccc(-n2cnc(C(F)(F)F)n2)nc1Oc1cccc(OC(F)(F)F)c1` : its Pre-emergence plant damage level (growth control rate) on Cotton reads 0

`Cc1ccc(-n2cnc(C(F)(F)C(F)(F)F)n2)nc1Oc1cccc(OC(F)(F)F)c1` yielded Pre-emergence plant damage level (growth control rate) on Cotton of 0

Value of Pre-emergence plant damage level (growth control rate) on Cotton reported for the compound `Cc1ccc(-n2cnc(C(F)(F)F)n2)nc1Oc1ccc(F)c(OC(F)F)c1` is 0

The compound listed as `Cc1ccc(-n2cnc(C(F)(F)F)n2)nc1Oc1ccc(F)c(C(F)(F)F)c1` has a reported Pre-emergence plant damage level (growth control rate) on Cotton of 0

Per the records, this compound ( `CCc1ccc(-n2cnc(C(F)(F)F)n2)nc1Oc1cccc(OC(F)(F)F)c1` ) has Pre-emergence plant damage level (growth control rate) on Cotton equal to 0

Notebook: `Cc1ccc(-n2cnc(C(C)(F)F)n2)nc1Oc1cccc(C(F)(F)F)c1` , Pre-emergence plant damage level (growth control rate) on Cotton read as 0

Lab book: Pre-emergence plant damage level (growth control rate) on Cotton of `Cc1ccc(-n2cnc(C(F)(F)F)n2)nc1Oc1cccc(Cl)c1` noted as 0

Sample `CCc1ccc(-n2cnc(C(F)(F)F)n2)nc1Oc1ccc(F)c(OC(F)(F)F)c1` ; Pre-emergence plant damage level (growth control rate) on Cotton observed: 0

The compound identified as `Cc1ccc(-n2cnc(C(F)(F)C(F)(F)F)n2)nc1Oc1cncc(C(F)(F)F)c1` registered its Pre-emergence plant damage level (growth control rate) on Cotton at 0

Noted for `Cc1ccc(-n2cnc(C(F)(F)F)n2)nc1Oc1cccc(C(F)F)c1` : its Pre-emergence plant damage level (growth control rate) on Cotton reads 0

So, `CCc1ccc(-n2cnc(C(F)(F)F)n2)nc1Oc1cncc(C(F)(F)F)c1` ? Its Pre-emergence plant damage level (growth control rate) on Cotton was 0

Briefly, Pre-emergence plant damage level (growth control rate) on Cotton measured for `COCc1ccc(-n2cnc(C(F)(F)C(F)(F)F)n2)nc1Oc1cccc(OC(F)(F)F)c1` : 0
